Quick reference for Fluo. Z Score among some molecules
Test system: alkaline phosphatase (ALP)
experimental_parameters: SAR of library and proprietary analogs, AttoPhos assay, C2C12
experimental_endpoint: Fluo. Z Score

molecule	assay_value
COC(=O)c1cc2cc(Cl)ccc2[nH]c1=O	0.61
Cc1cc(C)c2[nH]c(=O)c(-c3c(-c4ccccc4)ncn3C3CCNC3)cc2c1 (stereo not drawn)	0.48
CC1(C)OB(c2c(C(=O)O)c(=O)[nH]c3ccc(Cl)cc23)OC1(C)C	3.15
Cc1cc(C)c2[nH]c(=O)c(-c3[nH]cnc3-c3ccccc3)cc2c1	34.56
Cc1cc(C)c2[nH]c(=O)c(-c3c(-c4ccccc4)ncn3CCCO)cc2c1	−0.3
O=C(Nc1ccc(O)cc1)c1cc2cc(Cl)ccc2[nH]c1=O	1.48

The reported numbers originate from patent US11478466B2.
